The reported measurements were obtained from patent US8722123B2.

System: L. monocytogenes
Type: cell-based, Listeria monocytogenes
observed_property: L. monocytogenes counts at 5 min (log CFU/ml)
Write down the numeric answer in log CFU/ml and omit the unit.

Some molecules with recorded L. monocytogenes counts at 5 min:
# molecule, L. monocytogenes counts at 5 min / log CFU/ml
measured = [
    ("CC(=O)CCC(=O)O [1.5% levulinic acid (pH 2.8), levulinic acid]", 6.9),
    ("CC(=O)CCC(=O)O [1.0% levulinic acid (pH 2.9), levulinic acid]", 6.6),
]

Q. Using the record for CC(=O)CCC(=O)O [0.5% levulinic acid (pH 2.6), levulinic acid] , report its L. monocytogenes counts at 5 min.
A. 6.8

Q. Using the record for CC(=O)CCC(=O)O [2.0% levulinic acid (pH 2.8), levulinic acid] , report its L. monocytogenes counts at 5 min.
A. 6.9

###

System: L. monocytogenes
Assay type: cell-based, Listeria monocytogenes
observed_property: L. monocytogenes counts at 0 min (log CFU/ml)
Write down the numeric answer in log CFU/ml and omit the unit.

# molecule, L. monocytogenes counts at 0 min / log CFU/ml
records = [
    ("CC(=O)CCC(=O)O [1.5% levulinic acid (pH 2.8), levulinic acid]", 6.9),
    ("CC(=O)CCC(=O)O [2.0% levulinic acid (pH 2.8), levulinic acid]", 6.8),
    ("CC(=O)CCC(=O)O [1.0% levulinic acid (pH 2.9), levulinic acid]", 6.8),
]

Here is another molecule to look at.
Q. API: value(readout=L. monocytogenes counts at 0 min, system=L. monocytogenes) for record CC(=O)CCC(=O)O [0.5% levulinic acid (pH 2.6), levulinic acid]
A. 6.7

###

Test system: S. enteritidis
Format: cell-based, Salmonella enteritidis
observed_property: S. enteritidis counts at 30 min (log CFU/ml)
Write down the numeric answer in log CFU/ml and omit the unit.

# molecule, observed_property, measured_value
data = [
    ("CC(=O)CCC(=O)O [0.1% levulinic acid (pH 2.5), levulinic acid]", "S. enteritidis counts at 30 min", 6.9),
]

Q. Using the record for CC(=O)CCC(=O)O [2.0% levulinic acid (pH 2.8), levulinic acid] , report its S. enteritidis counts at 30 min.
A. 6.0

Q. Using the record for CC(=O)CCC(=O)O [2.5% levulinic acid (pH 2.6), levulinic acid] , report its S. enteritidis counts at 30 min.
A. 4.8

Q. Using the record for CCCCCCCCCCCCOS(=O)(=O)[O-].[Na+] [0.05% sodium dodecyl sulfate (pH 4.4), sodium dodecyl sulfate] , report its S. enteritidis counts at 30 min.
A. 7.1

###

Test system: S. enteritidis
Assay type: cell-based, Salmonella enteritidis
observed_property: S. enteritidis counts at 2 min (log CFU/ml)
Write down the numeric answer in log CFU/ml and omit the unit.

# compound, S. enteritidis counts at 2 min, log CFU/ml
data = [
    ("CC(=O)CCC(=O)O [1.0% levulinic acid (pH 2.9), levulinic acid]", 6.7),
    ("CC(=O)CCC(=O)O [2.5% levulinic acid (pH 2.6), levulinic acid]", 6.8),
    ("CCCCCCCCCCCCOS(=O)(=O)[O-].[Na+] [0.05% sodium dodecyl sulfate (pH 4.4), sodium dodecyl sulfate]", 7.0),
    ("CC(=O)CCC(=O)O [2.0% levulinic acid (pH 2.8), levulinic acid]", 6.7),
    ("CC(=O)CCC(=O)O [1.5% levulinic acid (pH 2.8), levulinic acid]", 6.7),
    ("CC(=O)CCC(=O)O [0.5% levulinic acid (pH 2.6), levulinic acid]", 6.8),
    ("CC(=O)O", 7.0),
    ("CC(=O)CCC(=O)O [3.0% levulinic acid (pH 2.7), levulinic acid]", 6.8),
]

Here is another compound to look at.
Q. Using the record for CC(=O)CCC(=O)O [0.1% levulinic acid (pH 2.5), levulinic acid] , report its S. enteritidis counts at 2 min.
A. 7.1
